Recorded IC50 for the following molecules
- TEST TARGET: recombinant human IL17a (binding to its receptor IL17R) (Homo sapiens, UniProt Q16552)
- Construct: 177-IR (IL17R/Fc)
- PROCEDURE SUMMARY: IL-17 competition ELISA I (IL17a coated, IL17R/Fc binding)

Worked examples, 3 molecules total:
>>> print(df.to_string())
                               query_smiles  property_name   readout_value
0  CN1CCCCCNC(=O)CNC(=O)[C@@H](Cc2ccc(NC(=O)[C@@H](NC(=O)Cc3ccc(CO)cc3)C3CCCCC3)cc2)NC(=O)CC2(CCCC2)CC1=O           IC50  100 to 1000 nM
1  O=C1CC2(CCCC2)CC(=O)N[C@H](Cc2ccc(NC(=O)[C@H](Cc3ccccc3Cl)NC(=O)Cc3ccccc3)cc2)C(=O)N[C@@H](Cc2ccccc2)C(=O)NCCCCCN1           IC50        < 100 nM
2  CC(=O)N[C@@H](Cc1ccccc1Cl)C(=O)Nc1ccc(C[C@H]2NC(=O)CC3(CCCC3)CC(=O)N(CCO)CCCCCNC(=O)CNC2=O)cc1           IC50  100 to 1000 nM

Task: Give IC50 (recombinant human IL17a (binding to its receptor IL17R) (Homo sapiens, UniProt Q16552)) of the following molecule: O=C1CC2(CCCC2)CC(=O)N[C@H](Cc2ccc(NC(=O)[C@@H](NC(=O)Cc3ccccc3)C3CCCCC3)cc2)C(=O)NCCCCCCN1
Result: 1000 to 10000 nM

Task: Give IC50 (recombinant human IL17a (binding to its receptor IL17R) (Homo sapiens, UniProt Q16552)) of the following molecule: O=C1CNC(=O)[C@@H](Cc2ccc(NC(=O)[C@H](Cc3ccc(Cl)c(Cl)c3)NC(=O)Cc3ccccc3)cc2)NC(=O)CC2(CCCC2)CC(=O)NCCCCCN1
Result: 100 to 1000 nM

====

- TEST TARGET: biotinylated human IL-17 (binding to IL17R/Fc) (Homo sapiens)
- Construct: purchased R&D Systems 317-ILB (IL-17, biotinylated); 177-IR (IL17R/Fc)
- PROCEDURE SUMMARY: IL-17 competition ELISA II (captured IL17R/Fc, biotinylated IL-17)
pIC50: −log10 of the molar value.
PROPERTY NAME: pIC50

COMPOUND	pIC50
O=C1CNC(=O)[C@@H](Cc2ccc(NC(=O)[C@H](Cc3ccccc3Cl)NC(=O)Cc3ccccc3)cc2)NC(=O)CC2(CCCC2)CC(=O)NCCNCCN1 [Compound 338]	> 7.00
COC(=O)N[C@H](C(=O)Nc1ccc(C[C@H]2NC(=O)CC3(CCCC3)CC(=O)NCCOCCOCCNC2=O)cc1)C1CCCCC1 [Compound 632]	6.00 to 7.00
O=C1CC2(CCCC2)CC(=O)N[C@H](Cc2ccc(NC(=O)[C@@H](NC(=O)c3cccnc3)C3CCCCC3)cc2)C(=O)NCCCCCCCCCN1 [Compound 407]	6.00 to 7.00
O=C1CC2(CCCC2)CC(=O)N[C@H](Cc2ccc(NC(=O)[C@H](Cc3ccccc3Cl)NC(=O)Cc3ccc(CO)cc3)cc2)C(=O)NCCCCCN1 [Compound 394]	> 7.00
O=C1CC2(CCCC2)CC(=O)N[C@H](Cc2ccc(NC(=O)[C@H](Cc3ccccc3Cl)NC(=O)Cc3ccc(F)cc3)cc2)C(=O)NCCCC[C@@H](C(=O)O)N1 [Compound 460]	> 7.00

Task: Give pIC50 (biotinylated human IL-17 (binding to IL17R/Fc) (Homo sapiens)) of the following compound: C[C@H]1NC(=O)[C@@H](Cc2ccc(NC(=O)[C@H](Cc3ccccc3Cl)NC(=O)Cc3ccc(F)cc3)cc2)N(C)C(=O)CC2(CCCC2)CC(=O)NCCCCCN(C)C1=O [Compound 518]
Result: > 7.00

Task: Give pIC50 (biotinylated human IL-17 (binding to IL17R/Fc) (Homo sapiens)) of the following compound: C[C@H]1NC(=O)[C@@H](Cc2ccc(NC(=O)[C@H](Cc3ccccc3Cl)NC(=O)Cc3ccc(N(C)C)cc3)cc2)NC(=O)CC2(CCCC2)CC(=O)NCCCCCNC1=O [Compound 552]
Result: > 7.00

Task: Give pIC50 (biotinylated human IL-17 (binding to IL17R/Fc) (Homo sapiens)) of the following compound: CN1CCNC(=O)CC2(CCCC2)CC(=O)N[C@H](Cc2ccc(NC(=O)[C@H](Cc3ccccc3Cl)NC(=O)NCc3ccccc3)cc2)C(=O)NCC1 [Compound 485]
Result: > 7.00

Task: Give pIC50 (biotinylated human IL-17 (binding to IL17R/Fc) (Homo sapiens)) of the following compound: C[C@H]1NC(=O)[C@@H](Cc2ccc(NC(=O)[C@H](Cc3ccccc3Cl)NC(=O)Cc3ccc(F)cc3)cc2)NC(=O)CC2(CCCC2)CC(=O)NCCN2CCN(CC2)C1=O [Compound 534]
Result: > 7.00

Task: Give pIC50 (biotinylated human IL-17 (binding to IL17R/Fc) (Homo sapiens)) of the following compound: C[C@H]1NC(=O)[C@@H](Cc2ccc(NC(=O)[C@H](Cc3ccccc3Cl)NC(=O)C(F)(F)c3ccccc3)cc2)NC(=O)CC2(CCCC2)NC(=O)CCNC(=O)CCNC1=O [Compound 635]
Result: > 7.00

Task: Give pIC50 (biotinylated human IL-17 (binding to IL17R/Fc) (Homo sapiens)) of the following compound: CN1C(=O)CC2(CCCC2)CC(=O)NCCOCCOCCNC(=O)[C@H]1Cc1ccc(NC(=O)[C@H](Cc2ccccc2Cl)NC(=O)Cc2ccc(F)cc2)cc1 [Compound 477]
Result: > 7.00

====

- TEST TARGET: biotinylated human IL-17 (binding to IL17R/Fc) (Homo sapiens, UniProt Q16552)
- Construct: 177-IR (IL17R/Fc)
- Sequence (Q16552 20-155 limits assumed): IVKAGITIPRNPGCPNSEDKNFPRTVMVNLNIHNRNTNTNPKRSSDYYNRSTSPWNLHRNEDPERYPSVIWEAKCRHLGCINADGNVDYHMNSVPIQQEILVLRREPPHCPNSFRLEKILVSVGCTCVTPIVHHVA
- PROCEDURE SUMMARY: IL-17 competition ELISA II (captured IL17R/Fc, biotinylated IL-17)
pIC50: −log10 of the molar value.
Recorded pIC50 for the following molecules

Worked examples, 4 molecules total:
MOLECULE	pIC50
O=C1CNC(=O)[C@@H](Cc2ccc(NC(=O)[C@H](Cc3ccccc3Cl)NC(=O)C(F)F)cc2)NC(=O)CC2(CCCC2)CC(=O)OCCCCCN1 [Compound 675]	> 7.00
CN(CCOc1ccc(CC(=O)N[C@@H](Cc2ccccc2Cl)C(=O)Nc2ccc(C[C@H]3NC(=O)CC4(CCCC4)CC(=O)NCCCCCNC(=O)[C@@H](Cc4ccccc4)NC3=O)cc2)cc1)Cc1ccccc1 [Compound 438]	> 7.00
CN1CCCCCNC(=O)CC2(CCCC2)CC(=O)NC(Cc2ccc(NC(=O)C(NC(=O)c3cccnc3)C3CCCCC3)cc2)C1=O (centres unmarked) [Compound 422]	5.00 to 6.00
CN1CCOCCOCCNC(=O)[C@@H](Cc2ccc(NC(=O)[C@H](CC3CCCCC3)NC(=O)Cc3ccc(N(C)C)cc3)cc2)NC(=O)CC2(CCCC2)CC1=O [Compound 614]	> 7.00

Continue with the molecule presented below.
Task: Need pIC50, item C[C@H]1NC(=O)[C@@H](Cc2ccc(NC(=O)[C@H](Cc3ccccc3Cl)NC(=O)C(F)(F)c3ccccc3)cc2)NC(=O)CC2(CCCC2)CC(=O)NCCCCCNC1=O [Compound 434]
Result: > 7.00

====

- TEST TARGET: IL17A (Homo sapiens, UniProt Q16552)
- PROCEDURE SUMMARY: Surface Plasmon Resonance (SPR) analysis of compound interactions with IL17A
- CONDITION PARAMETERS: SPR binding to IL17A
pKd: −log10 of the molar value.
PROPERTY NAME: pKd

QUERY SMILES	pKd
COC(=O)[C@H]1CCCCNC(=O)CNC(=O)[C@@H](Cc2ccc(NC(=O)[C@H](Cc3ccccc3F)NC(=O)c3ccccc3)cc2)NC(=O)CC2(CCCC2)CC(=O)N1	> 7.00

Task: Need pKd, item O=C1CCCNC(=O)[C@@H](Cc2ccc(NC(=O)[C@H](Cc3ccccc3F)NC(=O)Cc3ccccc3)cc2)NC(=O)CC2(CCCC2)CC(=O)N[C@@H](C(=O)O)CCCCN1
Result: 6.00 to 7.00

Task: Need pKd, item COC(=O)[C@@H]1CCCCNC(=O)CCCNC(=O)[C@@H](Cc2ccc(NC(=O)[C@H](Cc3ccc(-c4ccccc4)cc3)NC(=O)Cc3ccccc3)cc2)NC(=O)CC2(CCCC2)CC(=O)N1
Result: 6.00 to 7.00
